Source of measurements: PubChem BioAssay (NCI)

test system: BT-549 breast; assay: NCI-60 one-dose screen, 48 h; conditions: 10 µM
Compounds without any hit were thinned out: in the full panel of roughly 83,000, 20% have a hit. Activity calls are given as the source filed them. How the source made its calls: active means growth percent below 10; inactive means the rest.
// classify into 1 = active, 0 = inactive

A selection of reference data follows.
smiles.text	qualitative.label
Brc1ccc(/C=C/c2n(Cc3ccc4ccccc4c3)c3ccccc3[n+]2Cc2ccc3ccccc3c2)cc1	1
Cc1ccc(C(C)C)cc1NC(=O)c1ccccc1O	1
COc1cccc(COc2ccc(/C=C3\Oc4cc(O)ccc4C3=O)cc2)c1	0
O=C(Nc1ccc(I)cc1)Nc1nc2ccc([N+](=O)[O-])cc2s1	1
Cc1ccc(-c2cc(-c3cc4ccccc4nc3Cl)[nH]c(=O)n2)cc1	1
CCCCCc1ccc(S(=O)(=O)N(C(C)=O)c2cc(-c3csc(N(C)C(C)=O)n3)ccc2N2CCN(C)CC2)cc1	0
COc1cc(/C=C/C(=O)c2ccc(S(=O)(=O)NCCNc3nc(Nc4ccc(F)cc4)nc(N(C)C)n3)cc2)cc(OC)c1OC	1
O=C(CNc1nc(-c2ccccc2)cs1)Nc1ccccc1	1
Nc1nc(Nc2ccc(Cl)cc2)n(Cc2cccc(Br)c2)n1	1
CC(C)(C)c1ccc(NCc2cn(-c3ccc(C(=O)O)cc3)nc2-c2ccc(C#N)cc2)cc1	1

Check the results log: what was the call for "COc1ccc(CN2[C@H](C(=O)NCc3ccc(C(=O)NO)cc3)Cc3c([nH]c4ccccc34)[C@H]2C2CC2)cc1" ?
0

Entry "CC(=O)c1ccc(Nc2nc(SC(C)C)nc(-c3ccccc3)c2C#N)cc1" : call = ?
0

###

system: SNB-75 CNS; experiment: NCI-60 one-dose screen, 48 h; settings: 10 µM
The panel holds about 83,000 compounds, 20% with a hit somewhere; the sample as a whole holds those more often. Active and inactive are the calls of the source. How the source made its calls: active means growth percent below 10; inactive means the rest.
Thanks in advance; please answer with one of these: active, inactive

Some entries whose results are on file:
compound	system.under.test	qualitative.label
CN1CCN(Cc2ccc(NC(=O)c3cncc(C#Cc4cnc5ccc(N[C@H]6CCOC6)nn45)c3)cc2C(F)(F)F)CC1	SNB-75 CNS	active
Cc1ccc2nc(COc3ccc(C(=O)NNC(=S)NC(=O)c4ccccc4)cc3)[nH]c2c1	SNB-75 CNS	inactive
O=C(Cc1ccc2c(c1)CN(C1CCC(=O)NC1=O)C2=O)NCc1cccc2ccccc12 (stereo not drawn)	SNB-75 CNS	active

Any idea what this test logged for "O=C(CSc1nnc(-c2ccc3nc(-c4ccccc4)[nH]c3c2)o1)Nc1ccc(Cl)cc1" ?
inactive

Check the results log: what was the call for "COc1ccc(-c2cc(C(=O)N=Nc3c(O)[nH]c4ccccc34)c3ccccc3n2)cc1" ?
inactive

Dear colleague, could you share the recorded outcome for "CC(=O)c1cc(C(=O)N2c3ccccc3Sc3ccccc32)n2ccc(C)cc12" when you have a moment?
inactive

Kindly provide the recorded test outcome for the following compound: C=C1CCC2C3(C)COC(c4c(F)cccc4F)OC3CCC2(C)C1CC(O)C1=CCOC1=O (stereo not drawn)
inactive

Outcome? "Nc1nnc(-c2c[nH]c3ncccc23)c(-c2c[nH]c3ccc(Br)cc23)n1"
inactive

###

system: NCI-H226 lung; test: NCI-60 one-dose screen, 48 h (100 = growth as untreated, 0 = no growth, -100 = all killed); conditions: 10 µM
This is part of a sample that, as a whole, favours compounds with a hit. Of some 83,000 tested, about 20% had one in any assay.
So basically: growth at 20% or higher? That is 1. Lower than 20%? That is -1.

Solved entries:
smiles.text	system.under.test	qualitative.label
O=c1oc2ccccc2cc1-c1csc(N=Nc2c(O)[nH]c3ccc(Br)cc23)n1	NCI-H226 lung	1
CCN1CCN(c2ccc(NC(=O)Nc3ccc4c(c3F)CCN4c3ccnc(C(=O)NC)c3)cc2C(F)(F)F)CC1	NCI-H226 lung	1

Entry "O=C(NO)c1ccc(Cn2ccc3c(NCc4ccccc4)ncnc32)cc1" : is its growth no less than 20%?
1

In plain terms: is recorded growth at least 20% for "Cc1ccc(/C=C/C(=O)c2ccc(NC(=O)CSc3nnc(-c4c[nH]c5ccccc45)n3-c3ccccc3)cc2)cc1" ?
1

Tell me whether growth is at least 20% here: "CC(=O)Nc1ccc(-n2cnc3cc(-c4ccc(O)cc4)ccc32)cc1F"
-1

###

growth listing for selected compounds.
test system: OVCAR-8 ovarian; test: NCI-60 one-dose screen, 48 h (100 = growth as untreated, 0 = no growth, -100 = all killed); settings: 10 µM
About 83,000 compounds went through this panel and 20% of them were active in at least one assay; those are over-represented in the sample as a whole.
Reply with just the number (in %).

Here is how some compounds turned out for growth.
smiles.text	readout.type	test.value
Cc1cc(=O)oc2cc(OCCCCOc3ccc(/C=C/C(=O)Nc4ccc(F)c(Cl)c4)cc3)ccc12	growth	85.2
O=C1c2ccccc2C(=O)c2c1c(C(=O)c1ccc(Cl)cc1)n1c2ccc2c3ccccc3ccc21	growth	103

Lab book: growth of "O=c1oc2ccc(-c3ccc(F)cc3F)cc2c(=O)n1-c1ccc(Cl)c(C(F)(F)F)c1" noted as 6.71

What the record says about "C=C1CC[C@H](C(=C)C)[C@H]2C=C(C)C(=O)C3=C(C(=O)[C@@](C)(O)C3)[C@H]12" : growth is -96.5

Lab note: "O=c1[nH]c2ccccc2cc1CSc1ccc(Nc2nccc(-c3ccc4ccccc4c3)n2)cc1" gave growth of -28

For this compound ( "CNC(=O)c1cc(-c2ccc(NC(=O)Nc3ccc(C)cc3)cc2)nc2cccnc12" ), measured growth is 97.8

Sure, the documented growth for "Cc1cc(=O)oc2cc(OCCCCOc3ccc(/C=C/C(=O)Nc4ccccc4[N+](=O)[O-])cc3)ccc12" is 111

###

Reported values of growth for individual entries
tested on: SF-268 CNS; assay: NCI-60 one-dose screen, 48 h (100 = growth as untreated, 0 = no growth, -100 = all killed); settings: 10 µM
About 83,000 compounds went through this panel and 20% of them were active in at least one assay; those are over-represented in the sample as a whole.
Provide the reading as a plain figure in %.

Check out these entries, answers already filled in.
compound	endpoint.unit	growth
COC[C@@H](CC(C)C)N=C1NC(=O)/C(=C/c2ccc3ncoc3c2)N1	%	22
CCCCSc1nc(Nc2ccc(/C(C)=N/NC(N)=S)cc2)c(C#N)c(-c2ccc(OC)cc2)n1	%	56.6
CCCn1c(=O)c2[nH]c(-c3ccc(OCc4nc5ccccc5[nH]4)cc3)nc2n(CCC)c1=O	%	38
Brc1ccc(/C=N/Nc2ncnc3sc4c(c23)CCN(Cc2ccccc2)C4)cc1	%	74.2
COc1cc2c(c(OC)c1OC)C(=O)CC(c1cccc(NC(=O)c3cccc(N)c3)c1)O2 (centres undefined)	%	81.7

Documented growth of "CC1(C)CC[C@]23CC[C@]4(C)[C@H](CC[C@@H]5[C@@]6(C)CC[C@H](N)C(C)(C)[C@@H]6CC[C@]54C)[C@H]2[C@H]1OC3=O" : -38.6

For "CO[C@H]1CSS[C@@H]1Cn1nc(-c2ccc(Oc3ccccc3)cc2)c2c(N)ncnc21" the compound record lists growth as 32.4

In plain terms, "O/N=C(\CSc1nnc(-c2c[nH]c3ccccc23)n1-c1ccccc1)c1ccc(Cl)cc1" has a documented growth of -49

###

system: NCI-H460 lung; assay: NCI-60 one-dose screen, 48 h; settings: 10 µM
About 83,000 compounds went through this panel and 20% of them were active in at least one assay; those are over-represented in the sample as a whole. Active and inactive are the calls of the source. The calls were made as follows: active = growth percent below 10; inactive = the rest.
Your answer must be one of the following: yes for active, no for inactive

Reference set, count: 3
molecule	qualitative.label
COc1cc2oc(-c3cccc(C(=O)Nc4ccc(Cl)cc4)c3)cc(=O)c2c(OCCNC(=O)CNC(=O)OC(C)(C)C)c1OC	no
Cc1ccc(CSc2nc(Cl)c(C#N)c(-c3ccc(F)cc3)n2)cc1	no
O=C(c1ccc(O)cc1)C1[C@H](c2ccc(Br)cc2)[C@@H](c2ccccc2)NC12C(=O)Nc1ccc(Br)cc12 (stereo partly drawn)	yes

In this assay, the call recorded for "O=C1NC(=NC23CC4CC(CC(C4)C2)C3)N/C1=C\c1ccc2ncsc2c1" was what?
yes

###

Test system: MDA-MB-231 breast
Test: NCI-60 one-dose screen, 48 h (100 = growth as untreated, 0 = no growth, -100 = all killed)
Conditions: 10 µM
Procedure: Cells are grown in 96 well plates and exposed to the test compound for 48 hours. Compounds are tested at a single concentration, which is 10^-5 M for most compounds. The reported endpoint is percent growth (GI% or GIPRCNT), where numbers from 0 - 100% represent growth inhibition, and numbers from -100% - 0 represent cell death. For example, a value of 40 represents 60% growth inhibition. A value of 0 means no net growth occurred over the course of the experiment. […]
About 83,000 compounds went through this panel and 20% of them were active in at least one assay; those are over-represented in the sample as a whole.
readout.type: growth (%)
Answer with a number only, understood to be in %.

smiles.text	system.under.test	endpoint.unit	growth
N#Cc1c(-c2ccc(F)cc2)nc(SCc2ccc(F)cc2)nc1N1CCOCC1	MDA-MB-231 breast	%	50.5
O=C(c1ccccc1)n1ccc(-c2cc3cc(Br)ccc3oc2=O)n1	MDA-MB-231 breast	%	32
N#Cc1c(-c2ccc(Cl)cc2)cc(-c2ccccc2)nc1OCc1ccccc1	MDA-MB-231 breast	%	80.2
O=C(Nc1ccc(Cl)c(C(F)(F)F)c1)c1cncc(C#Cc2cnc3ccc(N4CCOCC4)nn23)c1	MDA-MB-231 breast	%	-44.6

Quick note, growth for "CN1CCN(c2ccc(C(=O)/C=C/c3ccc(C#N)cc3)cc2)CC1" landed at 65.8
